# Assay target: human kinase Mps-1 (Homo sapiens, UniProt P33981)
# Construct: N-terminally GST-tagged human full length recombinant Mps-1 kinase; GST (N); purchased Invitrogen, Karslruhe, Germany PV4071
# Sequence (P33981 whole entry): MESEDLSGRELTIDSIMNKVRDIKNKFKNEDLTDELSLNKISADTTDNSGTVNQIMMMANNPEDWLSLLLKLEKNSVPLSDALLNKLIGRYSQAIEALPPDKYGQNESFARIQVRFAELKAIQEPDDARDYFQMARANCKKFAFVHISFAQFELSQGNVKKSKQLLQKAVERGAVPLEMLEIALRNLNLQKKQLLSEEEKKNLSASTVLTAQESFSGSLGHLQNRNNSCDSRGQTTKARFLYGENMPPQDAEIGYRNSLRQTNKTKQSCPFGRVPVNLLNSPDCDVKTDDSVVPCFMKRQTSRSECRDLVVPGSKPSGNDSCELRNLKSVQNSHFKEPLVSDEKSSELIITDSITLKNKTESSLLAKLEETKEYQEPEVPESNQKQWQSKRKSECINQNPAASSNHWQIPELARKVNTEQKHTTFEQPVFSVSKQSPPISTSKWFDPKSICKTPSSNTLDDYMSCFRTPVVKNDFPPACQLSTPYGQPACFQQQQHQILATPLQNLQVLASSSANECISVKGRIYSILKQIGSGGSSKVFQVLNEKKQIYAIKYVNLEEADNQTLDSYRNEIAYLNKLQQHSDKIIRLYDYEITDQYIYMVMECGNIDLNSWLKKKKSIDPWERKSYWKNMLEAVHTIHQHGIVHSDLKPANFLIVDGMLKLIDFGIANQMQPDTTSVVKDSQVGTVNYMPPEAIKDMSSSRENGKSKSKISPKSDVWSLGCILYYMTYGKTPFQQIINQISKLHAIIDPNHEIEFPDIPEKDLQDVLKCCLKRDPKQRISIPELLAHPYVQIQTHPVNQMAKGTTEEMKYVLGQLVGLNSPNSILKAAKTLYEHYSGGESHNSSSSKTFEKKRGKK
# Assay procedure: Mps-1 kinase assay (TR-FRET)
# Type: biochemical
# Assay setup: Mps1 IC50 [nM], N-terminally GST-tagged human full length recombinant Mps-1; 10 μM ATP; 1 μM biotinylated peptide substrate; 60 min at 22° C.
Recorded endpoint: log10 IC50 (log10 of the value in nM)
Would you kindly interpret these values as log10 of IC50 expressed in nM?

Example compounds with recorded log10 IC50:
> print(dat)
                                   compound  recorded.endpoint  recorded.value
1  O=C(NC1CC1)c1ccc(-c2cnc3c(NCC(O)C(F)(F)F)nccn23)cc1Cl (centres unmarked)         log10 IC50            2.24
2  Cc1cc(-c2cnc3c(NCc4ccccc4O)nccn23)ccc1C(=O)NC1CC1         log10 IC50            1.39
3  N#CCCNc1nccn2c(-c3ccc(C(=O)NC4CC4)c(O)c3)cnc12         log10 IC50            1.71
4  NS(=O)(=O)CCNc1nccn2c(-c3ccc(C(=O)NC4CC4)cc3)cnc12         log10 IC50            1.76
5  CC(O)CNc1nccn2c(-c3ccc(C(=O)NC4CC4)c(Cl)c3)cnc12 (centres unmarked)         log10 IC50            2.60
6  O=C(NC1CC1)c1ccc(-c2cnc3c(NCc4ccn[nH]4)nccn23)cc1         log10 IC50            1.84
7  Cc1cc(-c2cnc3c(NCC4CCCCO4)nccn23)ccc1C(=O)NC1CC1 (centres unmarked)         log10 IC50            1.91

Task: Quick check: log10 IC50 of Cc1cc(-c2cnc3c(NCCCCO)nccn23)ccc1C(=O)NC1CC1 ?
Output: 1.85

###

# Assay target: human kinase Mps-1 (Homo sapiens, UniProt P33981)
# Construct: N-terminally GST-tagged human full length recombinant Mps-1 kinase; GST (N); purchased Invitrogen, Karslruhe, Germany PV4071
# Assay procedure: Mps-1 kinase assay (TR-FRET)
# Assay type: biochemical
# Assay setup: N-terminally GST-tagged human full length recombinant Mps-1; 10 μM ATP; 1 μM biotinylated peptide substrate; 60 min at 22° C.; read-out: Mps1 IC50
This section presents molecules with their documented pIC50 values.
Note: pIC50 values are expressed as the negative base-10 logarithm of concentration in M.

> print(dat)
                                   molecule  recorded.value
1  CCCCCNc1nccn2c(-c3ccc(C(=O)NC4CC4)cc3)cnc12 [Example 7-1]            7.65
2  Cc1cc(-c2cnc3c(NCCCS(C)(=O)=O)nccn23)ccc1C(=O)NC1CC1 [Example 5-1]            6.56
3  Cc1cc(-c2cnc3c(NCc4ccccc4)nccn23)ccc1C(=O)NC1CC1 [Example 7-101]            7.47

Task: Quick check: pIC50 of CS(=O)(=O)CCNc1nccn2c(-c3ccc(C(=O)NC4CC4)cc3)cnc12 [Example 4-1] ?
Output: 7.76

Task: Quick one: CCNc1nccn2c(-c3ccc(C(=O)NC4CC4)c(C)c3)cnc12 [Example 7-103]
Output: 6.84

Task: Quick one: NS(=O)(=O)c1ccc(CCNc2nccn3c(-c4ccc(C(=O)NC5CC5)cc4)cnc23)cc1 [Example 7-27]
Output: 7.01

Task: Quick one: O=C(NC1CC1)c1ccc(-c2cnc3c(NCc4ccccn4)nccn23)cc1Cl [Example 7-47]
Output: 5.92

Task: Quick one: CC(C)(O)CNc1nccn2c(-c3ccc(C(=O)NC4CC4)cc3)cnc12 [Example 3-2]
Output: 7.03

Task: Quick one: O=C(NC1CC1)c1ccc(-c2cnc3c(NCC4CCCO4)nccn23)cc1Cl (stereo not drawn) [Example 7-34]
Output: 6.68

The reported numbers originate from patent US20130303532A1.
